Can you tell me IC50 for the items I'm about to list?
measured_on: KRas^G12D (Homo sapiens, UniProt P01116, G12D)
Construct: Biotinylated KRas (corresponding to amino acids 1-169, produced at Accelegan Inc.); biotin (biotinylated); purchased Accelegan Inc
Sequence (P01116 1-169 isoform P01116-2 G12D): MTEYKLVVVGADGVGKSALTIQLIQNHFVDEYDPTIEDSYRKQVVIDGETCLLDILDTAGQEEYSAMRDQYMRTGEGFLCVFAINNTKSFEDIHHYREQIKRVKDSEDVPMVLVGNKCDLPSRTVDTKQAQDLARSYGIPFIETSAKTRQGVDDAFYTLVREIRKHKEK
assay_remarks: KRas binding assay (TR-FRET tracer displacement), KRas G12D
Please respond with the number in nM and leave the unit unwritten.

Reported IC50 ( Cc1cc2sncc2c(-c2ncc3c(N4CCC[C@@](C)(O)C4)nc(OCC45CCCN4CCC5)nc3c2F)c1C [Example 820] ) = 22900

response.value for C[C@@]1(O)CCCN(c2nc(OCC34CCCN3CCC4)nc3c(F)c(-c4ccc(F)c5sc(N)nc45)ncc23)C1 [Example 735] (field: IC50) = 1980

Recorded IC50 (compound CCc1c(F)ccc2cc(O)cc(-c3ncc4c(N5CCC[C@@](C)(O)C5)nc(OC[C@@]56CCCN5C[C@H](F)CC6)nc4c3F)c12 [Example 815] ): 2

O[C@@H]1CCCN(c2nc(OCC34CCCN3CCC4)nc3c(F)c(-c4cccc5cccc(Cl)c45)ncc23)C1 [Example 902] yielded IC50 of 834
